Numbers sourced from paper PMC9482650.

target: LDB3, O75112; experiment: holdup assay; set-up: key: below the threshold = too weak to quantify, mostly under pKd 3.1 to 4; conditions: plain residues with an end cap or a label only (N-terminal biotin on a linker: ahx)
Sequence (O75112 1-94): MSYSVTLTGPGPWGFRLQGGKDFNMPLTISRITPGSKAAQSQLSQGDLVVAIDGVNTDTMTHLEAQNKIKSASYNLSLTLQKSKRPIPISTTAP
measure: pKd

Some binders with recorded pKd:
Noted for QPRTWLQSPV [RTKN, Q9BST9] : its pKd reads below the threshold

Noted for QNTDDVQTSF [ACE2, Q9BYF1] : its pKd reads below the threshold

Noted for APSRKLNTEI [TIAM1, Q13009] : its pKd reads below the threshold

Noted for TQKFRASTAL [FRMPD1, Q5SYB0] : its pKd reads below the threshold

Moving on to the next binder.
Noted for QDEKVKESYV [ABCA1, O95477] : its pKd reads 3.53
